Source of measurements: patent US20230357429A1

Target: T1, Human TROP2 ECD (31-274 AA), biotinylated (human, UniProt P09758 31-274, biotinylated (site not stated))
T1 construct: also called tumor-associated calcium signal transducer 2; Human TROP2-biotin
T1 sequence: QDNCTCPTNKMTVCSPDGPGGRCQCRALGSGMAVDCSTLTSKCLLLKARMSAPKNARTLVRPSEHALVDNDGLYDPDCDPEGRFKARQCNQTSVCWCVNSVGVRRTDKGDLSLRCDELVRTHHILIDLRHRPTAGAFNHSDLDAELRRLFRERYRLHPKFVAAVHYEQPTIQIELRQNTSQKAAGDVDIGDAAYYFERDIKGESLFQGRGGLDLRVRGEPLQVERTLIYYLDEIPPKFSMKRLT
Assay: BLI (Octet), dissociation half-life from biotinylated human TROP2 ECD
Metric Name: t1/2 (min)
Numbers only, in min.

// below: answered binders
May I ask what t1/2 has been recorded for TBD-8 (anti-TROP2 Fab, LC P95A) (Fab, V domains shown) VH: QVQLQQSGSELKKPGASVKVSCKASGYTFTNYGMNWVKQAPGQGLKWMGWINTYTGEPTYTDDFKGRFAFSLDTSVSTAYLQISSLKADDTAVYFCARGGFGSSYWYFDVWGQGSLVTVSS VL: DIQLTQSPSSLSASVGDRVSITCKASQDVSIAVAWYQQKPGKAPKLLIYSASYRYTGVPDRFSGSGSGTDFTLTISSLQPEDFAVYYCQQHYITALTFGAGTKVEIKR ?
61

State the recorded t1/2 for this entry: TBD-3 (anti-TROP2 Fab, LC Q90A) (Fab, V domains shown) VH: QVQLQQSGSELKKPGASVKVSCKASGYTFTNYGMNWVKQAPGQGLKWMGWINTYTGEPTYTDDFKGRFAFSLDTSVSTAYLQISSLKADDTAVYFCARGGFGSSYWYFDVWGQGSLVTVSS VL: DIQLTQSPSSLSASVGDRVSITCKASQDVSIAVAWYQQKPGKAPKLLIYSASYRYTGVPDRFSGSGSGTDFTLTISSLQPEDFAVYYCQAHYITPLTFGAGTKVEIKR
27

Bench note: what t1/2 did TBD-2 (anti-TROP2 Fab, LC Q89A) (Fab, V domains shown) VH: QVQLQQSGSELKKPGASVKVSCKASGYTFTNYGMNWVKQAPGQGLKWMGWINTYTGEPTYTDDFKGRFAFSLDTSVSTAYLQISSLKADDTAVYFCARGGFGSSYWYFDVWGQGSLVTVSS VL: DIQLTQSPSSLSASVGDRVSITCKASQDVSIAVAWYQQKPGKAPKLLIYSASYRYTGVPDRFSGSGSGTDFTLTISSLQPEDFAVYYCAQHYITPLTFGAGTKVEIKR show?
24

The record that follows has no t1/2 shown yet.
# input binder: TBD-9 (anti-TROP2 Fab, LC L96A) (Fab, V domains shown) VH: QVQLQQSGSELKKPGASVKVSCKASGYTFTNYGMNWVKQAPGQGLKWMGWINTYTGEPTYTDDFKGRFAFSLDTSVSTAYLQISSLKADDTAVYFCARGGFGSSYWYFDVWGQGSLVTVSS VL: DIQLTQSPSSLSASVGDRVSITCKASQDVSIAVAWYQQKPGKAPKLLIYSASYRYTGVPDRFSGSGSGTDFTLTISSLQPEDFAVYYCQQHYITPATFGAGTKVEIKR ; wanted: its t1/2
5
